Field: efficacy (kill in %). Provide a value for each of the compounds that follow.
Test system: L1 larvae of the Australian sheep blowfly (Lucilia cuprina)
Test: Lucilia cuprina test (LUCICU)
Type: in vivo
Conditions: application rate 100 ppm; after 2 days
Method: E. Lucilia cuprina Test (LUCICU) Solvent: dimethyl sulphoxide To produce a suitable preparation of active compound, 10 mg of active compound are mixed with 0.5 ml of dimethyl sulphoxide, and the concentrate is diluted with water to the desired concentration. […] After 2 days, the kill in % is determined 100% means that all of the larvae have been killed; 0% means that none of the larvae have been killed.
One number for each entry, in %.

In the examples that follow, each entry is paired with its recorded efficacy (kill in %).
Cc1nnc(NC(=O)c2cc(-c3cnn(-c4c(C(F)(F)F)c(C(F)(F)C(F)(F)F)nn4C)c3)ccc2Cl)o1: 100
Cn1nc(C(F)(F)C(F)(F)F)c(C(F)(F)F)c1-n1cc(-c2cncc(C(=O)NC3(C#N)CC3)c2)cn1: 100
Cn1nc(C(F)(F)C(F)(F)F)c(C(F)(F)F)c1-n1cc(-c2cc(C(=O)NC3CC3)ccc2Cl)cn1: 100
CNC(=O)C1(N(C)C(=O)c2cc(-c3cnn(-c4c(C(F)(F)F)c(C(F)(F)C(F)(F)F)nn4C)c3)ccc2Cl)CC1: 100
Cn1nc(C(F)(F)C(F)(F)F)c(C(F)(F)F)c1-n1cc(-c2ccc(Cl)c(C(=O)NCc3cccs3)c2)cn1: 100

Each compound below has a reported value. Please supply its efficacy (kill in %).
1. Cn1nc(C(F)(F)C(F)(F)F)c(C(F)(F)F)c1-n1cc(-c2ccc(Cl)c(C(=O)NC3CC3)c2)c(C(F)(F)F)n1
2. CCn1nc(C(F)(F)C(F)(F)F)c(C(F)(F)F)c1-n1cc(-c2ccc(Cl)c(C(=O)NC3CC3)c2)cn1
3. CON=Cc1c(C(F)(F)F)nn(C)c1-n1cc(-c2ccc(Cl)c(C(=O)NC3(C#N)CC3)c2)cn1 (mixture of isomers)

Reply:
100
100
80

---

Assay: logP determination by HPLC on a reversed-phase column (C18), EEC Directive 79/831 Annex V.A8
Format: physicochemical
Settings: HPLC on reversed-phase column (C18), acetonitrile/water with formic acid, EEC Directive 79/831 Annex V.A8
Criterion: logP strictly under 4. Met: 1. Not met: -1.

Cn1nc(C(F)(F)C(F)(F)F)c(C(F)(F)F)c1-n1cc(-c2ccc(Cl)c(C(=O)NC3(C#N)CC3)c2)cn1: 1

Query: Hello, is logP of the following compound strictly smaller than 4? Cn1nc(C(F)(F)C(F)(F)F)c(C(F)(F)F)c1-n1cc(-c2ccc(Cl)c(C(=O)Nc3ccc(Cl)cc3)c2)cn1
Reply: -1

Query: Hi there! Is logP for Cn1nc(C(F)(F)F)c(C(F)(F)F)c1-n1cc(-c2ccc(Cl)c(C(=O)NC3(C#N)CC3)c2)cn1 below 4, do you know?
Reply: 1

Query: Report whether reported logP is lower than 4 (strictly) for COC1(NC(=O)c2cc(-c3cnn(-c4c(C(F)(F)F)c(C(F)(F)C(F)(F)F)nn4C)c3)ccc2Cl)CC1
Reply: 1

Query: For Cn1nc(C(F)(F)C(F)(F)F)c(C(F)(F)F)c1-n1cc(-c2cccc(C(N)=O)c2)cn1 , is the recorded logP below the cut-off of 4?
Reply: 1

---

Assay: logP determination by HPLC on a reversed-phase column (C18), EEC Directive 79/831 Annex V.A8
Type: physicochemical
Conditions: HPLC on reversed-phase column (C18), acetonitrile/water with formic acid, EEC Directive 79/831 Annex V.A8
Protocol: ^a) Note regarding the determination of the logP values and mass detection: The determination of the given logP values was carried out in accordance with EEC Directive 79/831 Annex V.A8 by HPLC (High Performance Liquid Chromatography) on a reversed-phase column (C18). […]
Provide the recorded logP for the entries that follow.
Numbers only.

Give logP for each listed item.
1. CCO[C@@H]1C[C@H]1NC(=O)c1cc(-c2cnn(-c3c(C(F)(F)F)c(C(F)(F)C(F)(F)F)nn3C)c2)ccc1Cl
2. CCN(CC)S(=O)(=O)c1ccc(-c2cnn(-c3c(C(F)(F)F)c(C(F)(F)C(F)(F)F)nn3C)c2)cc1C(=O)NC1CC1
3. Cn1nc(C(F)(F)F)c(CF)c1-n1cc(-c2ccc(Cl)c(C(=O)NC3CC3)c2)cn1
4. CON=Cc1ccc(-c2cnn(-c3c(C(F)(F)F)c(C(F)(F)C(F)(F)F)nn3C)c2)cc1C(=O)NC1CC1 (mixture of isomers)
5. COc1ccc(-c2cnn(-c3c(C(F)(F)F)c(C(F)(F)C(F)(F)F)nn3C)c2)cc1C(=O)NC1(C#N)CC1
6. Cn1nc(C(F)(F)F)c(C=O)c1-n1cc(-c2ccc(Cl)c(C(=O)NC3(C#N)CC3)c2)cn1

Reply:
1. 3.99
2. 3.99
3. 2.89
4. 3.99
5. 3.77
6. 2.61

// batch mode: one logP value per listed entry
1. Cn1nc(C(F)(F)F)c(C=O)c1-n1cc(-c2ccc(Cl)c(C(=O)NC3CC3)c2)cn1
2. Cn1nc(C(F)(F)C(F)(F)F)c(C(F)(F)F)c1-n1cc(-c2ccc(Cl)c(C(=O)NCC(F)F)c2)cn1

Reply:
1: 2.67; 2: 3.86

Provide the reported logP of each entry below, same order.
1. Cn1nc(C(F)(F)C(F)(F)F)c(C(F)(F)F)c1-n1cc(-c2ccc(Cl)c(C(=O)NC3(C(N)=S)CC3)c2)cn1
2. Cn1nc(C(F)(F)F)c(C#N)c1-n1cc(-c2ccc(Cl)c(C(=O)NC3(C#N)CC3)c2)cn1
3. CCOC1C(C)C1NC(=O)c1cc(-c2cnn(-c3c(C(F)(F)F)c(C(F)(F)C(F)(F)F)nn3C)c2)ccc1Cl (stereo not shown)
4. O=C(NC1CC1)c1cc(-c2cnn(-c3c(C(F)(F)F)c(C(F)(F)C(F)(F)F)nn3-c3ccccc3)c2)ccc1Cl
5. C=CCN(C(=O)c1cc(-c2cnn(-c3c(C(F)(F)F)c(C(F)(F)C(F)(F)F)nn3C)c2)ccc1Cl)C1(C#N)CC1

Reply:
1. 3.59
2. 2.92
3. 4.34
4. 4.54
5. 4.44

Your task in this section: give logP for each listed record.
1. Cn1nc(C(F)(F)C(F)(F)F)c(C(F)(F)F)c1-n1cc(-c2cccc(C(=O)NCc3ccccc3)c2)cn1
2. Cn1nc(C(F)(F)F)c(C(=O)NC2CC2)c1-n1cc(-c2ccc(Cl)c(C(=O)NC3CC3)c2)cn1
3. Cc1c(-c2ccc(Cl)c(C(=O)NC3CC3)c2)cnn1-c1c(C(F)(F)F)c(C(F)(F)C(F)(F)F)nn1C
4. Cn1nc(C(F)(F)C(F)(F)F)c(C(F)(F)F)c1-n1cc(-c2cccc(C(=O)NC3CC3)c2)cn1
5. Cn1nc(C(F)(F)F)c(C(F)F)c1-n1cc(-c2ccc(Cl)c(C(=O)NC3CC3)c2)cn1
6. C=C=CCNC(=O)c1cc(-c2cnn(-c3c(C(F)(F)F)c(C(F)(F)C(F)(F)F)nn3C)c2)ccc1Cl

Reply:
4.31
2.31
3.88
3.66
3.01
4.04
